# measured_on: mGluR5 (Homo sapiens, UniProt P41594)
# Sequence (P41594 21-1212): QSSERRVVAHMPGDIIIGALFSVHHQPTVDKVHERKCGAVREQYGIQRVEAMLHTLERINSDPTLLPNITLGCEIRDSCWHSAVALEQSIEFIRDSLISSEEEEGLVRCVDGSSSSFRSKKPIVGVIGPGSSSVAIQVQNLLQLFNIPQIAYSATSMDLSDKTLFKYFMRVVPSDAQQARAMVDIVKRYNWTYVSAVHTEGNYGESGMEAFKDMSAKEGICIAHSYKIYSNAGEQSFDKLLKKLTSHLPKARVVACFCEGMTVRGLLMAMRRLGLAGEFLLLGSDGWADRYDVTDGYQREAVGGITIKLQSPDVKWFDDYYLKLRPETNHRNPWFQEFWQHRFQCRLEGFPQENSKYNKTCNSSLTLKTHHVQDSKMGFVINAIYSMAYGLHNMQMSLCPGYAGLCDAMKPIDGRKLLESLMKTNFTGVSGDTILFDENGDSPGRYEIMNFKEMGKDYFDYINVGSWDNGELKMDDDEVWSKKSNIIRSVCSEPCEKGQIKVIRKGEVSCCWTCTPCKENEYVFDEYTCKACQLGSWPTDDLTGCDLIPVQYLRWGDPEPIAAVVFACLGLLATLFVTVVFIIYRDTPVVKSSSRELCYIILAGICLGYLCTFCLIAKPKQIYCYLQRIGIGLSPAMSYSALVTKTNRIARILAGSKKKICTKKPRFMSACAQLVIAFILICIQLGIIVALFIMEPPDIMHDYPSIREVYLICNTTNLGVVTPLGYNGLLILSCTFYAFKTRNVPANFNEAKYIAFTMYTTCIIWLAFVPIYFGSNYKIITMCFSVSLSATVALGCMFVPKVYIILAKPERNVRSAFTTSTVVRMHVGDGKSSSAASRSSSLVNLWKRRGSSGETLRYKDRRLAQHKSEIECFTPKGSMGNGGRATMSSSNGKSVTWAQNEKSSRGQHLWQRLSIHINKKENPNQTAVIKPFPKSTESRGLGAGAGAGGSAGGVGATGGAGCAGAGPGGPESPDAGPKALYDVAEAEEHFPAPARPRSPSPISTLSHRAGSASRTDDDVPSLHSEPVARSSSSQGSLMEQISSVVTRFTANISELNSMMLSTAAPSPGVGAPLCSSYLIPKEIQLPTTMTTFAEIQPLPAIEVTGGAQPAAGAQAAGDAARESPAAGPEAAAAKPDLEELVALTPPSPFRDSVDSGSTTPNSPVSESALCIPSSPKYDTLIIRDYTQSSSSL
# assay_name: mGluR5 PAM EC50 (positive allosteric modulator potency)
pEC50: −log10 of the molar value.
parameter: pEC50

Ask: Given the entry `C/C(=C\c1ccc2c(=O)n3c(nc2c1)CCC(C)(C)C3)c1ccccn1` , report its measured pEC50.
Result: 6.52 to 7.00

Ask: Now give it for `COc1ccnc(C#Cc2ccc3c(=O)n4c(nc3c2)CCC(C)(C)C4)c1` too.
Result: 7.00 to 7.52

Ask: Now give it for `Cc1cc(C#Cc2ccc3c(=O)n4c(nc3c2)CCC(C)(C)C4)ccn1` too.
Result: 7.52 to 8.00

Ask: Now give it for CC12CCCN1CCc1nc3cc(C#Cc4ccccn4)ccc3c(=O)n1C2 (centres unmarked) too.
Result: 6.00 to 6.52

Ask: Now give it for CC1(C)CCc2nc3cc(C#Cc4cccc(C#N)n4)ccc3c(=O)n2C1 [Example 2.24b] too.
Result: 7.52 to 8.00

Ask: Now give it for CCC1CCc2nc3cc(C#Cc4ccccn4)cnc3c(=O)n2CC1 (single isomer, unassigned) [Example 3.14a] too.
Result: 7.00 to 7.52

Ask: Now give it for CC1(CF)CCc2nc3cc(C#Cc4ccccn4)ccc3c(=O)n2C1 (centres unmarked) too.
Result: > 8.00

Ask: Now give it for CCC1CCc2nc3cc(C#Cc4ccccn4)cnc3c(=O)n2C1 (single isomer, unassigned) [Example 2.22b] too.
Result: 6.52 to 7.00

---

For each of the compounds below, state its EC50.
# measured_on: mGluR5 (Homo sapiens)
# assay_name: mGluR5 PAM EC50 (positive allosteric modulator potency)
# Assay type: cell-based

Ask: Given the entry O=c1c2ccc(C#Cc3ccccn3)cc2nc2n1CC1CC(F)(F)CN1CC2 (stereo not shown) [Example 3.33a] , what EC50 was observed with mGluR5 (Homo sapiens)?
Result: 0.03 to 0.1 µM

Ask: Now give it for `Cc1cccc(C#Cc2ccc3c(=O)n4c(nc3c2)CCC(C)(C)C4)c1` too.
Result: < 0.01 µM

Ask: Now give it for O=c1c2ccc(C#Cc3ccccn3)cc2nc2n1C[C@H]1CCCN21 (stereo in doubt) too.
Result: 0.03 to 0.1 µM

Ask: Now give it for `CC1(C)CCc2nc3cc(-c4nnc(-c5ccccn5)s4)ccc3c(=O)n2C1` too.
Result: 0.1 to 0.3 µM

---

# measured_on: mGluR5 (Homo sapiens)
# assay_name: mGluR5 PAM EC50 (positive allosteric modulator potency)
# Type: cell-based
For each of the molecules below, state its EC50.

Ask: Given the entry CC1CCc2nc3cc(C#Cc4ccccn4)ccc3c(=O)n2C1 (single isomer, unassigned) [Example 2.2b] , report its measured EC50.
Result: 10 to 30 nM

Ask: Now give it for CC1(C)CCc2nc3cc(C#Cc4ccnc(F)c4)ccc3c(=O)n2C1 [Example 2.92] too.
Result: < 10 nM

Ask: Now give it for CC1Cn2c(nc3cc(C#Cc4ccccn4)ccc3c2=O)CCC1(F)F (single isomer, unassigned) [Example 3.30f] too.
Result: 10 to 30 nM

Ask: Now give it for CC1CCc2nc3c(F)c(C#Cc4ccccn4)ccc3c(=O)n2CC1 (single isomer, unassigned) [Example 3.12b] too.
Result: 10 to 30 nM

Ask: Now give it for N#Cc1ccnc(C#Cc2ccc3c(=O)n4c(nc3c2)CCCCC4)c1 [Example 3.5] too.
Result: 10 to 30 nM

Ask: Now give it for CC1(C)Cc2nc3cc(NC(=O)c4ccccn4)ccc3c(=O)n2C1 [Example 4.18] too.
Result: 300 to 1000 nM

Ask: Now give it for CC(C)(F)C1Cc2nc3cc(C#Cc4ccccn4)ccc3c(=O)n2C1 (single isomer, unassigned) [Example 1.3a] too.
Result: < 10 nM

Ask: Now give it for CC1(C)Cc2nc3cc(C#Cc4ccccn4)ccc3c(=O)n2O1 [Example 1.15] too.
Result: 30 to 100 nM
